# target-system: Bromodomain-containing protein 4 [58-164] (Homo sapiens, UniProt O60885)
# Construct: 58-164
# method-notes: Fluorescence Anisotropy Binding Assay
# Procedure: Binding affinity of the newly synthesized compounds to the BRD4 BrD1 was assessed in a fluorescence anisotropy assay using a fluorescein isothiocyanate (FITC)-labeled MS417 as an assay probe (Zhang et al. 2008 op.cit.). […] Measurements were obtained after 1 hour incubation of the fluorescent ligand and the protein at 25° C. with Safire 2 microplate reader (Tecan). […]

compound | Kd, µM
N=c1n(Cc2cn(CCc3ccccc3)nn2)c2ccccc2n1CC(O)c1ccc(Cl)c(Cl)c1 (configuration not stated) | 0.354
Cc1ccccc1Cc1cn(C[C@H](O)c2ccc(Cl)c(Cl)c2)c2ccccc12 | 0.64
N=c1n(Cc2cn(Cc3ccccc3F)nn2)c2ccccc2n1CC(O)c1ccc(Cl)c(Cl)c1 (configuration not stated) | 0.371
Cc1ccccc1Cn1c(=N)n(CC(O)c2ccc(Cl)c(Cl)c2)c2ccc(Cl)cc21 (configuration not stated) | 0.503
Cc1cccc(Cn2cc(Cn3c(=N)n(CC(O)c4ccc(Cl)c(Cl)c4)c4ccccc43)nn2)c1 (configuration not stated) | 0.556
COc1ccc2c(c1)n(Cc1ccccc1C)c(=N)n2CC(O)c1ccc(Cl)c(Cl)c1 (configuration not stated) | 0.694
N=c1n(Cc2cn(Cc3cccc(F)c3)nn2)c2ccccc2n1CC(O)c1ccc(Cl)c(Cl)c1 (configuration not stated) | 0.548

###

pKd: recorded values
# target-system: Bromodomain-containing protein 4 [58-164] (Homo sapiens, UniProt O60885)
# Construct: 58-164
# method-notes: Fluorescence Anisotropy Binding Assay
pKd: −log10 of the molar value.

compound | pKd
Cc1ccccc1Cn1cc(Cn2c(=N)n(CC(O)c3ccc(Cl)c(Cl)c3)c3ccccc32)nn1 (centres undefined) | 6.26
N=c1n(Cc2cn(-c3ccccc3)nn2)c2ccccc2n1CC(O)c1ccc(Cl)c(Cl)c1 (centres undefined) | 7.19
N=c1n(Cc2cn(Cc3ccc(F)cc3)nn2)c2ccccc2n1CC(O)c1ccc(Cl)c(Cl)c1 (centres undefined) | 5.41
Cc1ccccc1Cn1c(=N)n(CC(O)c2ccc(Cl)c(Cl)c2)c2ccc(F)cc21 (centres undefined) | 6.57
